Target: T1, human prolactin receptor (PRLR) (human, UniProt P16471 25-622)
T1 sequence: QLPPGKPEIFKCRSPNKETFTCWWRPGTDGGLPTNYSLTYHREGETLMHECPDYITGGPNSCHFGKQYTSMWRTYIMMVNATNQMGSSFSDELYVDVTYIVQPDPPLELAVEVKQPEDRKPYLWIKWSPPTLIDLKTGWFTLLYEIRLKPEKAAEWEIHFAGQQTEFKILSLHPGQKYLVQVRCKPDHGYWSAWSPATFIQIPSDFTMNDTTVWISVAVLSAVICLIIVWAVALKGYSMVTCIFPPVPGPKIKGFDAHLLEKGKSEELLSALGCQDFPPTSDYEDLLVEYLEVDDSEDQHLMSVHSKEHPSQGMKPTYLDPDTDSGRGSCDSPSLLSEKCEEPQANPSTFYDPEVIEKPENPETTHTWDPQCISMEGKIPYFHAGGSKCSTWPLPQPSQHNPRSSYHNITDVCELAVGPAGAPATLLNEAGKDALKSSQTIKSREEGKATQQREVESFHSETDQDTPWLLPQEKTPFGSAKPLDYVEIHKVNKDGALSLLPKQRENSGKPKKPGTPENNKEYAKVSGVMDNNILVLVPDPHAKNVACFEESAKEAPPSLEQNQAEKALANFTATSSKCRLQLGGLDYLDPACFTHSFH
Test: cell-based or functional assay
experimentalEndpoint: % Kill, PC3/hPRLR cells (%)
// return numeric value only (unit: %, not printed)

Answered examples (2):
# binder, experimentalEndpoint, endpointResult
records = [
    ("H1H6953N-DM1 (antibody, human IgG1, V domains shown, DM1 conjugated through SMCC linker; attachment residues not stated) VH: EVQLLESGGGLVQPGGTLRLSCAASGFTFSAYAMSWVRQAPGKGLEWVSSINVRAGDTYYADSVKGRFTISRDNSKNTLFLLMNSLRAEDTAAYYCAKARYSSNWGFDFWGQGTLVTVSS VL: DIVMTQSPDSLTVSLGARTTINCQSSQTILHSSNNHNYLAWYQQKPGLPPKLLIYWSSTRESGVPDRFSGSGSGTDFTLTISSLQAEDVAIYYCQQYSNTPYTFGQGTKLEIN", "% Kill, PC3/hPRLR cells", 83),
    ("H1H6765P-mc-VC-PAB-MMAE (antibody, human IgG1, V domains shown, MMAE conjugated through cleavable mc-vc-PAB linker; attachment residues not stated) VH: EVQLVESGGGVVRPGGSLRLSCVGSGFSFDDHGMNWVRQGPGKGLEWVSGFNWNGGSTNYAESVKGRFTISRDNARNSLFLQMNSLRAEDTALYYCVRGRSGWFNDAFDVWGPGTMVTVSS VL: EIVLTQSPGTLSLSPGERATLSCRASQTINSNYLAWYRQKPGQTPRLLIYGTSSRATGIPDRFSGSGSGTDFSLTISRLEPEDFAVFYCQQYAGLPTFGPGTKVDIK", "% Kill, PC3/hPRLR cells", 85),
]

Then there is this binder:
What value of % Kill, PC3/hPRLR cells has been recorded for this entry: H1H6953N-mc-VC-PAB-MMAE (antibody, human IgG1, V domains shown, MMAE conjugated through cleavable mc-vc-PAB linker; attachment residues not stated) VH: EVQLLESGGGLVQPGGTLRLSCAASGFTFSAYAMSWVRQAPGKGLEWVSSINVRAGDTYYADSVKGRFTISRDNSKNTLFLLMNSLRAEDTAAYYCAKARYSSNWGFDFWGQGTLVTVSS VL: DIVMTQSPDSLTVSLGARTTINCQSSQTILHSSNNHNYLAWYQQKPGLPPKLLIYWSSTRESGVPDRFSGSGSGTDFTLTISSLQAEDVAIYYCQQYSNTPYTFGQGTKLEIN
80
